These entries and their values trace back to patent US20260098080A1.

Exercise: state measured Kd for each of the binders provided.
target: T1, human MASP-2cf CCP1-CCP2-SP (human, UniProt O00187 298-686, limits assumed); assay: SPR, target immobilised
T1 construct: domain: CCP1-CCP2-SP; also called human MASP-2 catalytic fragment
T1 sequence (O00187 298-686 limits assumed): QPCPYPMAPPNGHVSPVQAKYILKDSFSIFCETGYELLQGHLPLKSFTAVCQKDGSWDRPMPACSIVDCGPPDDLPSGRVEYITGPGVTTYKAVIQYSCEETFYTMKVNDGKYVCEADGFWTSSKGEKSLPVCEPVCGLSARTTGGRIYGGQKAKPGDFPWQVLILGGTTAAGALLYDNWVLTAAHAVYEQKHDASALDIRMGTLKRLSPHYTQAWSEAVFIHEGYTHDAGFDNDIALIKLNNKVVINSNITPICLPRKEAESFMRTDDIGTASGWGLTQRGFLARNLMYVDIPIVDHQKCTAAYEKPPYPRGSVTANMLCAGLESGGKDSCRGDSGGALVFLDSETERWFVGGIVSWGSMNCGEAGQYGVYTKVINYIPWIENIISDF
Where no end group is shown, it is not given here.
Field: numeric (pM). Do not append units.

Dear colleague, I am looking for the recorded Kd of the following binder: EVO23 (designed binder, not fully specified; cysteine pairing not given here, Modified TFPI-D2 Kunitz domain; made as m1) KPDFCFLENDPGPCRALKRRYFYNNQTKQCERFYYGGCFGNMNNFVTLEECKNICEDG 94

Dear colleague, I am looking for the recorded Kd of the following binder: EVO224 (designed binder, not fully specified; cysteine pairing not given here, Modified TFPI-D2 Kunitz domain; made as m1) KPDFCFLENDPGVCRALAVRYFYNNQTKQCERFYYGGCLGNMNNFVTLEECKNICEDG 561

Dear colleague, I am looking for the recorded Kd of the following binder: EVO2d (designed binder, not fully specified; cysteine pairing not given here, Modified TFPI-D2 Kunitz domain; made as m1) KPDFCFLEEDPGPCRALKRRYFYNNQTKQCERFKYGGCLGNMNNFETLEECKNICEDG 1190

Dear colleague, I am looking for the recorded Kd of the following binder: EVO2c (designed binder, not fully specified; cysteine pairing not given here, Modified TFPI-D2 Kunitz domain; made as m1) KPDFCFLEEDPGPCRAVKRRYFYNNQTKQCERFYYGGCLGNMNNFETLEECKNICEDG 1040

Dear colleague, I am looking for the recorded Kd of the following binder: EVO214 (designed binder, not fully specified; ends and bridges not checked, Modified TFPI-D2 Kunitz domain; made as m1) KPDFCFLENDPGPCRALKLRYFYNNQTKQCERFGYGGCLGNMNNFVTLEECKNICEDG 38

Dear colleague, I am looking for the recorded Kd of the following binder: EVO25 (designed binder, not fully specified; cysteine pairing not given here, Modified TFPI-D2 Kunitz domain; made as m1) KPDFCFLENDPGPCRALKRRYFYNNQTKQCERFYYGGCFGNMNNFETLEECKNICEDG 203

Dear colleague, I am looking for the recorded Kd of the following binder: EVO24 (designed binder, not fully specified; cysteine pairing not given here, Modified TFPI-D2 Kunitz domain; made as m1) KPDFCFLENDPGPCRALKRRYFYNNQTKQCERFYYGGCLGNMNNFETLEECKNICEDG 276
